Assign inhibition to each entry below.
Biological target: UniProtKB O60285
Sequence (O60285 whole entry, looked up): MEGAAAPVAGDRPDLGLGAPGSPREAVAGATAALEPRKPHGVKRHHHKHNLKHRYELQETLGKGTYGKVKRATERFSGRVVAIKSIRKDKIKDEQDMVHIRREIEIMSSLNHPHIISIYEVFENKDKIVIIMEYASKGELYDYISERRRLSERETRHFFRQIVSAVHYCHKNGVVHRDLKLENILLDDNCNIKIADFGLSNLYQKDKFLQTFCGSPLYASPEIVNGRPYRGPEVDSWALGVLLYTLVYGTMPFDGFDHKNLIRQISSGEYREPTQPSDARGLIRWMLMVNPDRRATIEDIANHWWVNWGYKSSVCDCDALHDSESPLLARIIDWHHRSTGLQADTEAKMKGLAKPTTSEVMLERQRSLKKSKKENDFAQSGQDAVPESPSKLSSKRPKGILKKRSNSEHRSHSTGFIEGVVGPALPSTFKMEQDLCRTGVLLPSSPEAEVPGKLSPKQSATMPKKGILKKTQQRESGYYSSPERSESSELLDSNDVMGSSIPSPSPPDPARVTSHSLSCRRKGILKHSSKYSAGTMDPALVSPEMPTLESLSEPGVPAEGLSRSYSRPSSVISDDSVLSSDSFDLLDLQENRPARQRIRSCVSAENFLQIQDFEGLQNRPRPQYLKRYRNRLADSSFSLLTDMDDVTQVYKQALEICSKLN
Assay: radiometric filter-binding kinase assay
Settings: compound 100.0 µM; ATP 20 µM
Give bare numbers, in %.

A selection of reference data follows.
Compound: COc1ccc(-c2cc3c(=O)[nH]cnc3s2)cc1OC
Measured value: 0
--
Compound: CC(C)(C)Nc1c(COCc2ccccc2)nc2[nH]cnn12
Measured value: 20
--
Compound: Nc1nc2cnc(-c3ccccc3)cn2n1
Measured value: 73

// for each compound in input: emit inhibition
1. Cc1cccc(C)c1-c1cn2nc(N)nc2cn1
2. O=C(Nc1cnc2[nH]cnn2c1=O)c1ccccc1
3. CC(C)(C)Nc1c(C2CC2)nc2[nH]cnn12
4. O=c1c(NC(=S)NCc2ccccc2)cnc2[nH]ccn12
5. CC1CN(c2nc3ccccn3c(=O)c2N)CC(C)O1 (configuration not stated)
6. COc1ccc(NC(=S)Nc2cnc3[nH]cnn3c2=O)cn1
7. CC(=O)Nc1nc2cnc(-c3ccccc3)cn2n1

[28, 0, 24, 0, 3, 0, 33]

// each listed compound needs a value for inhibition
1. O=C(c1cccc(-c2cc3c(=O)[nH]cnc3s2)c1)N1CCOCC1
2. O=C(Nc1cnc2[nH]ccn2c1=O)c1ccccc1

0
0

---

Exercise: for every item that follows, state its recorded inhibition.
Target: PHKG1 (human) (UniProt Q16816)
Sequence (Q16816 whole entry, looked up): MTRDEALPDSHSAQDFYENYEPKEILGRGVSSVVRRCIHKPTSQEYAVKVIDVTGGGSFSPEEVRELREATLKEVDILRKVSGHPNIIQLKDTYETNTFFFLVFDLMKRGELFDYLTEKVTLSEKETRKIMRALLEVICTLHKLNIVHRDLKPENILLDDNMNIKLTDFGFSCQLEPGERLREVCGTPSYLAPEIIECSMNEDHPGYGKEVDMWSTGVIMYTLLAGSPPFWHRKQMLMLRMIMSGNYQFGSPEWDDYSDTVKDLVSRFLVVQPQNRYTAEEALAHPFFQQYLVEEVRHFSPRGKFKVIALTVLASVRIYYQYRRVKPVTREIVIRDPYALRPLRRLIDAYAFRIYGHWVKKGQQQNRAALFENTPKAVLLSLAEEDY
Test: radiometric filter-binding kinase assay
Details: compound 100.0 µM; ATP 50 µM
One number for each entry, in %.

Example entries and their recorded answers appear below.
Compound: COc1ccc(-c2cc3c(=O)[nH]cnc3s2)cc1OC
Quantity measured: inhibition
Measured value: 13
--
Compound: CC(=O)Nc1nc2cnc(-c3c(C)cccc3C)cn2n1
Quantity measured: inhibition
Measured value: 0
--
Compound: O=c1cc(-c2ccccc2F)nc2[nH]ccn12
Quantity measured: inhibition
Measured value: 8
--
Compound: O=c1c(NC(=S)NCc2ccccc2)cnc2[nH]ccn12
Quantity measured: inhibition
Measured value: 24
--
Compound: Cc1cccc(C)c1-c1cn2nc(N)nc2cn1
Quantity measured: inhibition
Measured value: 41

Please give inhibition for each item listed below.
1. CC(C)(C)Nc1c(C2CC2)nc2[nH]cnn12
2. O=C(c1cccc(-c2cc3c(=O)[nH]cnc3s2)c1)N1CCOCC1
3. Nc1cnc2c(-c3c(F)cccc3F)cccn2c1=O
4. COc1ccc(NC(=S)Nc2cnc3[nH]cnn3c2=O)cn1
5. CC(C)(C)Nc1c(COCc2ccccc2)nc2[nH]cnn12
6. CC(=O)Nc1nc2cnc(-c3ccccc3)cn2n1

[6, 9, 38, 30, 10, 68]

Reported inhibition, compound CC1CN(c2nc3ccccn3c(=O)c2N)CC(C)O1 (configuration not stated) : ____
3

---

Target: CAMKK2 (human)
Experiment: radiometric filter-binding kinase assay
Conditions: compound 100.0 µM; ATP 20 µM
Quantity measured: inhibition (%)
Give bare numbers, in %.

Compound: CC1CN(c2nc3ccccn3c(=O)c2N)CC(C)O1 (stereo not given)
inhibition (%): 0
--
Compound: O=c1c(NC(=S)NCc2ccccc2)cnc2[nH]ccn12
inhibition (%): 0
--
Compound: O=C(Nc1cnc2[nH]ccn2c1=O)c1ccccc1
inhibition (%): 0
--
Compound: CC(C)(C)Nc1c(C2CC2)nc2[nH]cnn12
inhibition (%): 34

Provide each entry's inhibition from the list below.
1. O=c1cc(-c2ccccc2F)nc2[nH]ccn12
2. COc1ccc(NC(=S)Nc2cnc3[nH]cnn3c2=O)cn1
3. CC(=O)Nc1nc2cnc(-c3ccccc3)cn2n1
4. Cc1cccc(C)c1-c1cn2nc(N)nc2cn1
5. O=C(Nc1cnc2[nH]cnn2c1=O)c1ccccc1
6. O=C(c1cccc(-c2cc3c(=O)[nH]cnc3s2)c1)N1CCOCC1
7. CC(C)(C)Nc1c(COCc2ccccc2)nc2[nH]cnn12

1: 0; 2: 0; 3: 41; 4: 21; 5: 0; 6: 0; 7: 28

List reported inhibition for each of these compounds:
1. Nc1cnc2c(-c3c(F)cccc3F)cccn2c1=O
2. Nc1nc2cnc(-c3ccccc3)cn2n1
3. CC(=O)Nc1nc2cnc(-c3c(C)cccc3C)cn2n1
4. COc1ccc(-c2cc3c(=O)[nH]cnc3s2)cc1OC

0
54
18
0

---

Assign inhibition to each entry below.
Molecular target: PIM2 (human)
Assay: radiometric filter-binding kinase assay
Details: compound 100.0 µM; ATP 5 µM
Answers are plain numbers, in %.

In the examples that follow, each entry is paired with its recorded inhibition.
Molecule: CC(C)(C)Nc1c(C2CC2)nc2[nH]cnn12
Quantity measured: inhibition
Measured value: 15
--
Molecule: Nc1nc2cnc(-c3ccccc3)cn2n1
Quantity measured: inhibition
Measured value: 16
--
Molecule: COc1ccc(NC(=S)Nc2cnc3[nH]cnn3c2=O)cn1
Quantity measured: inhibition
Measured value: 0
--
Molecule: CC(=O)Nc1nc2cnc(-c3ccccc3)cn2n1
Quantity measured: inhibition
Measured value: 11
--
Molecule: O=c1c(NC(=S)NCc2ccccc2)cnc2[nH]ccn12
Quantity measured: inhibition
Measured value: 4

Hello, I would appreciate it if you could give inhibition for each entry below.
1. O=c1cc(-c2ccccc2F)nc2[nH]ccn12
2. COc1ccc(-c2cc3c(=O)[nH]cnc3s2)cc1OC

1: 17; 2: 25

For every item below, please supply its inhibition.
1. CC1CN(c2nc3ccccn3c(=O)c2N)CC(C)O1 (stereo not given)
2. CC(C)(C)Nc1c(COCc2ccccc2)nc2[nH]cnn12

1. 19
2. 16

---

Target: AURKA (human) (UniProt O14965)
Sequence (O14965 whole entry, looked up): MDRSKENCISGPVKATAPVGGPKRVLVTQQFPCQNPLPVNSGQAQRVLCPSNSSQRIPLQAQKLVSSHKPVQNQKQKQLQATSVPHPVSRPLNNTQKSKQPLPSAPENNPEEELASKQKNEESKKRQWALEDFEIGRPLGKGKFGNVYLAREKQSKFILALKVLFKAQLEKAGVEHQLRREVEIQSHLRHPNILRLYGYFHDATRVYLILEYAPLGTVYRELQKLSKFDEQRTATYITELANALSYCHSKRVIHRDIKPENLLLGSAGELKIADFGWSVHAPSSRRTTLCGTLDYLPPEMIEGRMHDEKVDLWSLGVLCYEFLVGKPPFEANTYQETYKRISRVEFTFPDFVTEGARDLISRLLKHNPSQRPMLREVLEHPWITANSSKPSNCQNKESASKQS
Assay: radiometric filter-binding kinase assay
Settings: compound 100.0 µM; ATP 5 µM
Hi there, I'd appreciate the recorded inhibition for every entry that follows.
One number for each entry, in %.

Give inhibition for all compounds that follow.
1. CC(=O)Nc1nc2cnc(-c3c(C)cccc3C)cn2n1
2. CC1CN(c2nc3ccccn3c(=O)c2N)CC(C)O1 (configuration not stated)
3. O=C(c1cccc(-c2cc3c(=O)[nH]cnc3s2)c1)N1CCOCC1
4. COc1ccc(NC(=S)Nc2cnc3[nH]cnn3c2=O)cn1
5. Cc1cccc(C)c1-c1cn2nc(N)nc2cn1
6. CC(=O)Nc1nc2cnc(-c3ccccc3)cn2n1
7. O=C(Nc1cnc2[nH]cnn2c1=O)c1ccccc1

1: 10; 2: 2; 3: 21; 4: 23; 5: 12; 6: 13; 7: 0

Return reported inhibition values for all items listed beneath this line.
1. O=c1cc(-c2ccccc2F)nc2[nH]ccn12
2. COc1ccc(-c2cc3c(=O)[nH]cnc3s2)cc1OC
3. Nc1cnc2c(-c3c(F)cccc3F)cccn2c1=O
4. O=C(Nc1cnc2[nH]ccn2c1=O)c1ccccc1
5. O=c1c(NC(=S)NCc2ccccc2)cnc2[nH]ccn12

1: 17; 2: 1; 3: 89; 4: 6; 5: 8

---

Molecular target: PRKCA (human) (UniProt P17252)
Test: radiometric filter-binding kinase assay
Settings: compound 100.0 µM; ATP 20 µM
Quantity measured: inhibition (%)
Give bare numbers, in %.

Compound: CC1CN(c2nc3ccccn3c(=O)c2N)CC(C)O1 (stereo not given)
U: %
Measured value: 15

Quick one: give me inhibition for each item below, same order please.
1. O=C(Nc1cnc2[nH]ccn2c1=O)c1ccccc1
2. O=c1cc(-c2ccccc2F)nc2[nH]ccn12
3. Cc1cccc(C)c1-c1cn2nc(N)nc2cn1
4. Nc1nc2cnc(-c3ccccc3)cn2n1
5. O=C(c1cccc(-c2cc3c(=O)[nH]cnc3s2)c1)N1CCOCC1
6. Nc1cnc2c(-c3c(F)cccc3F)cccn2c1=O
7. COc1ccc(NC(=S)Nc2cnc3[nH]cnn3c2=O)cn1
8. CC(=O)Nc1nc2cnc(-c3c(C)cccc3C)cn2n1

2
2
9
2
21
36
23
0

Below are 3 compounds. Give each one its inhibition.
1. COc1ccc(-c2cc3c(=O)[nH]cnc3s2)cc1OC
2. CC(C)(C)Nc1c(COCc2ccccc2)nc2[nH]cnn12
3. CC(=O)Nc1nc2cnc(-c3ccccc3)cn2n1

[18, 0, 0]

Take each entry in turn and give its inhibition.
1. O=c1c(NC(=S)NCc2ccccc2)cnc2[nH]ccn12
2. O=C(Nc1cnc2[nH]cnn2c1=O)c1ccccc1
3. CC(C)(C)Nc1c(C2CC2)nc2[nH]cnn12

1. 2
2. 0
3. 0

---

Biological target: INSR (human)
Assay: radiometric filter-binding kinase assay
Conditions: compound 100.0 µM; ATP 20 µM
Quantity measured: inhibition (%)
Answers are plain numbers, in %.

Worked examples follow.
Molecule: O=C(c1cccc(-c2cc3c(=O)[nH]cnc3s2)c1)N1CCOCC1
Measured on: INSR (human)
U: %
inhibition: 0
//
Molecule: COc1ccc(-c2cc3c(=O)[nH]cnc3s2)cc1OC
Measured on: INSR (human)
U: %
inhibition: 0
//
Molecule: CC(=O)Nc1nc2cnc(-c3ccccc3)cn2n1
Measured on: INSR (human)
U: %
inhibition: 60

Please look at the items below and tell me inhibition for each one, in order.
1. Nc1cnc2c(-c3c(F)cccc3F)cccn2c1=O
2. O=C(Nc1cnc2[nH]cnn2c1=O)c1ccccc1
3. CC(C)(C)Nc1c(COCc2ccccc2)nc2[nH]cnn12
4. COc1ccc(NC(=S)Nc2cnc3[nH]cnn3c2=O)cn1

88
0
4
0

Batch request: inhibition for each of the following molecules.
1. CC(=O)Nc1nc2cnc(-c3c(C)cccc3C)cn2n1
2. O=C(Nc1cnc2[nH]ccn2c1=O)c1ccccc1
3. Cc1cccc(C)c1-c1cn2nc(N)nc2cn1
4. Nc1nc2cnc(-c3ccccc3)cn2n1

0
11
24
97
